Experiment: Estimated solubility of the salt in organic solvents
Format: physicochemical
Conditions: methanol, organic solvent or mixture
measure: solubility

INSERT INTO assay_data (compound, measure, result) VALUES
  ('CC(=O)Nc1ccc(O)cc1OC[C@@](C)(O)CNC1CCN(Cc2ccc(Cl)cc2)CC1 [Form A]', 'solubility', '> 20 mg/mL');

* * *

Target protein (sequence): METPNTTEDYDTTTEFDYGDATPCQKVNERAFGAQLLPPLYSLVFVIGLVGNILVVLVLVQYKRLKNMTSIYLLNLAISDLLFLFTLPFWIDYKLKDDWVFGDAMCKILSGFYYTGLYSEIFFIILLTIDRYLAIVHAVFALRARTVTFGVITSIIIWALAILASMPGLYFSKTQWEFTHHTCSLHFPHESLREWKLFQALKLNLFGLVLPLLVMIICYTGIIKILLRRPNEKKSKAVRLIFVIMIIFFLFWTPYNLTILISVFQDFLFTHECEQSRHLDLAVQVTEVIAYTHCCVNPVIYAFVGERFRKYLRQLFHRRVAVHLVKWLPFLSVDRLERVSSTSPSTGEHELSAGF
pIC50: −log10 of the molar value.
measure: pIC50

INSERT INTO results (compound, measure, result) VALUES
  ('CC(=O)Nc1ccc(O)cc1OC[C@@](C)(O)CNC1CCN(Cc2ccc(Cl)cc2)CC1 [ditrifluoroacetate]', 'pIC50', '> 7.30');

* * *

Assay: Estimated solubility of the salt in organic solvents
Assay type: physicochemical
Details: n-propanol, organic solvent or mixture
measure: solubility

INSERT INTO assay_data (compound, measure, result) VALUES
  ('CC(=O)Nc1ccc(O)cc1OC[C@@](C)(O)CNC1CCN(Cc2ccc(Cl)cc2)CC1 [Form A]', 'solubility', '> 20 mg/mL');

* * *

Test: Estimated solubility of the salt in organic solvents
Assay type: physicochemical
Conditions: ethanol, organic solvent or mixture
measure: solubility

INSERT INTO measurements (molecule, result) VALUES
  ('CC(=O)Nc1ccc(O)cc1OC[C@@](C)(O)CNC1CCN(Cc2ccc(Cl)cc2)CC1 [Form A]', '> 20 mg/mL');
